System: CCRF-CEM leukemia
Test: NCI tumour cell line growth inhibition, 48 h
# maps each entry to its TGI
I only need the number, in µM, no unit after it.

| Compound | Scale unit | Reported result |
| --- | --- | --- |
| Cc1coc2c1C(=O)C(=O)c1ccccc1-2 | µM | 5.49 |

Now consider a different compound.
Entry under test: CCOC(=O)C(C)Sc1nnc(COc2ccc(Cl)cc2)n1-c1ccccc1 (stereo not given) . Its TGI was 34

====

System: IGROV1 ovarian
Assay: NCI tumour cell line growth inhibition, 48 h
# maps each entry to its TGI

Entry under test: O=C(O)Cc1ccc(Nc2nc3ccccc3nc2C(=O)O)cc1 . Its TGI was > 100 µM

Entry under test: Cc1cc(C(=O)Nc2n[nH]c3ccccc23)n[nH]1 . Its TGI was > 100 µM

Entry under test: C1OC1CN1CCN(CC2CO2)CC1 (stereo unspecified) . Its TGI was > 100 µM

Entry under test: CCOC(=O)Nc1nc2ccccc2[nH]1 . Its TGI was > 100 µM

Entry under test: C/C=C/C/C=C/[C@H](C)C[C@H](O)[C@@H]1C[C@@H]2O[C@H]2/C=C/[C@@H]2OC(C)(C)O[C@H]2/C=C/C[C@H](C)CC(=O)O1 . Its TGI was > 100 µM

Entry under test: C[C@@H]1[C@H](O)CC2=C(CC[C@@H](O)C2(C)C)[C@@]1(CO)CCc1ccoc1 . Its TGI was > 50 µM

====

Test system: MCF7 breast
Test: NCI tumour cell line growth inhibition, 48 h
# maps each entry to its GI50

Previously resolved entries follow.
| Given smiles | Parameter measured | Reported result |
| --- | --- | --- |
| O=C(O)c1cc2ccccc2c2c3c(ccc12)OCO3 | GI50 | 227 µM |
| Cc1ccc(C(=O)c2sc3nc4c(cc3c2N)CCCC4)c(C)c1 | GI50 | 0.162 µM |
| O=C(CSCC(=O)N/N=C/c1ccccc1O)N/N=C\c1ccccc1O | GI50 | 5.85 µM |

Entry under test: Cc1ccc(C(=O)NCCCOc2ccc(N3C(N)=NC(N)=NC3(C)C)cc2Cl)cc1S(=O)(=O)F . Its GI50 was 22.4 µM

====

System: T-47D breast
Assay: NCI tumour cell line growth inhibition, 48 h
Parameter measured: GI50

Previously resolved entries follow.
| Given smiles | GI50 |
| --- | --- |
| O=C(CSCC(=O)N/N=C/c1ccccc1O)N/N=C\c1ccccc1O | 2.36 µM |
| CC(=O)Oc1ccc2c(c1)[C@@]1(C)CCCC(C)(C)[C@@H]1CC2 | 37.5 µM |
| [N-]=[N+]=NCCCn1c2c(c3ccc([N+](=O)[O-])cc3c1=O)C(=O)c1cc3c(cc1-2)OCO3 | 0.656 µM |
| CN(C)C(=O)OCc1nc2c(N3CCOCC3)nc(-c3ccccc3)nc2n1C | 1.85 µM |
| CCCCCCCCCCCCCCCCCCNCc1ccc(Cl)cc1 | 4.28 µM |

Tested on T-47D breast, the item Cc1cc(-c2nnc(/C=C/c3ccc4c(c3)OCO4)o2)n[nH]1 showed GI50 equal to 22 µM

Tested on T-47D breast, the item CC1=C(/C=C/C(=O)CC(=O)/C=C/C2=C(C)CCCC2(C)C)C(C)(C)CCC1 showed GI50 equal to 41.5 µM

Tested on T-47D breast, the item NCCCCCNc1noc(Cc2c[nH]c3cc(Br)ccc23)n1 showed GI50 equal to 5.15 µM

Tested on T-47D breast, the item Cc1ccc(S(=O)(=O)OCC#CCOS(=O)(=O)c2ccc(C)cc2)cc1 showed GI50 equal to 1.94 µM
